Entry source: the OligoGym collection

Parameter: normalised inhibition (eCFP-eYFP dual reporter). Scope: all listed entries.
- experimental_target: UBE2J1
- test_details: reporter assay of Huesken 2005
- condition_info: siRNA
Oligonucleotides are written 5' to 3', each unit as a sugar letter and its base; * is a phosphorothioate linkage, no mark a phosphodiester; rarer units and linkages stand in square brackets, end groups in braces. Plain capitals give the bases only. d = 2'-deoxy (DNA); r = 2'-OH (RNA)
measured_quantity: normalised inhibition (eCFP-eYFP dual reporter) (%)

[[record]]
substance = "sense rGrArGrCrArUrCrUrCrArGrGrCrCrArUrCrArUdTdT / antisense rArUrGrArUrGrGrCrCrUrGrArGrArUrGrCrUrCdAdA"
measurement_units = "%"
recorded_number = 64.1

[[record]]
substance = "sense rCrCrCrArArCrCrUrGrUrArGrCrUrArArGrArAdTdT / antisense rUrUrCrUrUrArGrCrUrArCrArGrGrUrUrGrGrGdTdA"
measurement_units = "%"
recorded_number = 78.5

[[record]]
substance = "sense rGrArCrCrArArGrArArGrCrCrArArArGrArArCdTdT / antisense rGrUrUrCrUrUrUrGrGrCrUrUrCrUrUrGrGrUrCdAdG"
measurement_units = "%"
recorded_number = 56.7

[[record]]
substance = "sense rGrCrCrArCrCrArGrArGrUrArUrCrCrCrArUrGdTdT / antisense rCrArUrGrGrGrArUrArCrUrCrUrGrGrUrGrGrCdAdG"
measurement_units = "%"
recorded_number = 53.6

[[record]]
substance = "sense rArUrCrArUrUrArCrCrArUrGrCrGrCrArGrCrCdTdT / antisense rGrGrCrUrGrCrGrCrArUrGrGrUrArArUrGrArUdCdT"
measurement_units = "%"
recorded_number = 55.2

[[record]]
substance = "sense rUrUrCrArCrUrArArCrUrGrArUrUrUrArCrArAdTdT / antisense rUrUrGrUrArArArUrCrArGrUrUrArGrUrGrArAdAdA"
measurement_units = "%"
recorded_number = 67.5

[[record]]
substance = "sense rGrArGrUrArUrArArGrGrArCrArGrCrArUrUrAdTdT / antisense rUrArArUrGrCrUrGrUrCrCrUrUrArUrArCrUrCdCdA"
measurement_units = "%"
recorded_number = 91.4


* * *

- experimental_target: UBE2L6
- test_details: reporter assay of Huesken 2005
- condition_info: siRNA
Oligonucleotides are written 5' to 3', each unit as a sugar letter and its base; * is a phosphorothioate linkage, no mark a phosphodiester; rarer units and linkages stand in square brackets, end groups in braces. Plain capitals give the bases only. d = 2'-deoxy (DNA); r = 2'-OH (RNA)
Below: a set of entries, each annotated with reported normalised inhibition (eCFP-eYFP dual reporter).
measured_quantity: normalised inhibition (eCFP-eYFP dual reporter) (%)

[[record]]
substance = "sense rArCrCrUrGrCrGrCrArUrCrArGrCrUrUrCrCrCdTdT / antisense rGrGrGrArArGrCrUrGrArUrGrCrGrCrArGrGrUdTdG"
recorded_number = 70.9

[[record]]
substance = "sense rCrArUrCrArGrCrArGrUrGrArGrArArCrUrGrGdTdT / antisense rCrCrArGrUrUrCrUrCrArCrUrGrCrUrGrArUrGdAdT"
recorded_number = 65.7

[[record]]
substance = "sense rUrArCrCrArCrCrCrCrArArCrGrUrGrGrArCrGdTdT / antisense rCrGrUrCrCrArCrGrUrUrGrGrGrGrUrGrGrUrAdGdA"
recorded_number = 37.4


* * *

- experimental_target: UFC1
- test_details: reporter assay of Huesken 2005
- condition_info: siRNA
Oligonucleotides are written 5' to 3', each unit as a sugar letter and its base; * is a phosphorothioate linkage, no mark a phosphodiester; rarer units and linkages stand in square brackets, end groups in braces. Plain capitals give the bases only. d = 2'-deoxy (DNA); r = 2'-OH (RNA)
# label = class 1 if normalised inhibition (eCFP-eYFP dual reporter) >= 70% else class 0

[[record]]
substance = "sense rUrCrArGrUrCrCrCrUrUrArUrCrCrGrGrUrArUdTdT / antisense rArUrArCrCrGrGrArUrArArGrGrGrArCrUrGrAdTdA"
experimental_target = "UFC1"
cat = "class 1"

[[record]]
substance = "sense rUrUrGrGrArArArArUrGrCrUrGrGrUrArUrArUdTdT / antisense rArUrArUrArCrCrArGrCrArUrUrUrUrCrCrArAdAdC"
experimental_target = "UFC1"
cat = "class 0"

[[record]]
substance = "sense rArCrGrGrArUrCrArUrUrUrCrArArArCrCrUrUdTdT / antisense rArArGrGrUrUrUrGrArArArUrGrArUrCrCrGrUdCdA"
experimental_target = "UFC1"
cat = "class 1"

[[record]]
substance = "sense rUrArCrUrGrCrCrCrCrArGrArArArUrUrGrCrAdTdT / antisense rUrGrCrArArUrUrUrCrUrGrGrGrGrCrArGrUrAdGdT"
experimental_target = "UFC1"
cat = "class 0"

[[record]]
substance = "sense rArArArUrCrCrCrUrGrArUrCrUrGrArUrUrCrAdTdT / antisense rUrGrArArUrCrArGrArUrCrArGrGrGrArUrUrUdCdC"
experimental_target = "UFC1"
cat = "class 1"

[[record]]
substance = "sense rGrGrArCrUrArGrCrUrCrArUrCrUrCrArUrGrGdTdT / antisense rCrCrArUrGrArGrArUrGrArGrCrUrArGrUrCrCdAdA"
experimental_target = "UFC1"
cat = "class 0"


* * *

Listed here: items and their measured normalised inhibition (eCFP-eYFP dual reporter).
- experimental_target: UBE2T
- test_details: reporter assay of Huesken 2005
- condition_info: siRNA
Oligonucleotides are written 5' to 3', each unit as a sugar letter and its base; * is a phosphorothioate linkage, no mark a phosphodiester; rarer units and linkages stand in square brackets, end groups in braces. Plain capitals give the bases only. d = 2'-deoxy (DNA); r = 2'-OH (RNA)
measured_quantity: normalised inhibition (eCFP-eYFP dual reporter) (%)

[[record]]
substance = "sense rArUrCrUrArCrCrArGrArGrGrCrUrGrGrUrGrAdTdT / antisense rUrCrArCrCrArGrCrCrUrCrUrGrGrUrArGrArUdTdA"
measurement_units = "%"
recorded_number = 97

[[record]]
substance = "sense rCrCrCrUrGrArUrGrArCrCrCrGrCrUrCrArUrGdTdT / antisense rCrArUrGrArGrCrGrGrGrUrCrArUrCrArGrGrGdTdT"
measurement_units = "%"
recorded_number = 91.2

[[record]]
substance = "sense rArCrArCrArCrCrUrUrArUrGrArGrArArArGrGdTdT / antisense rCrCrUrUrUrCrUrCrArUrArArGrGrUrGrUrGrUdTdG"
measurement_units = "%"
recorded_number = 74.7

[[record]]
substance = "sense rGrCrGrArGrCrUrCrArArArUrArUrUrArGrGrUdTdT / antisense rArCrCrUrArArUrArUrUrUrGrArGrCrUrCrGrCdAdG"
measurement_units = "%"
recorded_number = 71.6

[[record]]
substance = "sense rCrCrUrGrArUrGrArCrCrCrGrCrUrCrArUrGrGdTdT / antisense rCrCrArUrGrArGrCrGrGrGrUrCrArUrCrArGrGdGdT"
measurement_units = "%"
recorded_number = 83.5

[[record]]
substance = "sense rUrGrGrArUrGrUrUrCrUrCrArArArUrUrGrCrCdTdT / antisense rGrGrCrArArUrUrUrGrArGrArArCrArUrCrCrAdGdA"
measurement_units = "%"
recorded_number = 71.9

[[record]]
substance = "sense rGrUrGrArCrUrCrCrArGrArGrUrArCrArCrArAdTdT / antisense rUrUrGrUrGrUrArCrUrCrUrGrGrArGrUrCrArCdCdA"
measurement_units = "%"
recorded_number = 108

[[record]]
substance = "sense rArUrUrCrCrUrGrArGrArGrGrUrArCrCrCrArUdTdT / antisense rArUrGrGrGrUrArCrCrUrCrUrCrArGrGrArArUdGdA"
measurement_units = "%"
recorded_number = 114

[[record]]
substance = "sense rUrCrUrGrGrArUrGrUrUrCrUrCrArArArUrUrGdTdT / antisense rCrArArUrUrUrGrArGrArArCrArUrCrCrArGrAdCdA"
measurement_units = "%"
recorded_number = 80.8

[[record]]
substance = "sense rCrCrArArUrUrUrArUrCrArUrCrCrArArArCrAdTdT / antisense rUrGrUrUrUrGrGrArUrGrArUrArArArUrUrGrGdAdG"
measurement_units = "%"
recorded_number = 101

[[record]]
substance = "sense rArCrCrUrCrCrUrCrArGrArUrCrCrGrArUrUrUdTdT / antisense rArArArUrCrGrGrArUrCrUrGrArGrGrArGrGrUdTdC"
measurement_units = "%"
recorded_number = 100

[[record]]
substance = "sense rUrGrUrUrGrGrCrArArGrArUrArArArGrArCrCdTdT / antisense rGrGrUrCrUrUrUrArUrCrUrUrGrCrCrArArCrAdTdG"
measurement_units = "%"
recorded_number = 75.8

[[record]]
substance = "sense rCrUrCrArArArUrUrGrCrCrArCrCrArArArArGdTdT / antisense rCrUrUrUrUrGrGrUrGrGrCrArArUrUrUrGrArGdAdA"
measurement_units = "%"
recorded_number = 68.5

[[record]]
substance = "sense rGrUrUrArUrCrArUrUrCrCrUrGrArGrArGrGrUdTdT / antisense rArCrCrUrCrUrCrArGrGrArArUrGrArUrArArCdTdT"
measurement_units = "%"
recorded_number = 75.4

[[record]]
substance = "sense rUrUrGrArCrCrUrCrUrArUrUrCrArGrCrUrGrCdTdT / antisense rGrCrArGrCrUrGrArArUrArGrArGrGrUrCrArAdCdA"
measurement_units = "%"
recorded_number = 49.2

[[record]]
substance = "sense rUrUrArArGrCrUrArGrArArGrUrUrArUrCrArUdTdT / antisense rArUrGrArUrArArCrUrUrCrUrArGrCrUrUrArAdAdA"
measurement_units = "%"
recorded_number = 89.9

